Listed here are variants together with their documented protein stability index.
B1: SAT2 (parent)
chain: LTEAEGWHFFCFQGEATRKLAGK

# Variants of: B1
# EXPERIMENT_SUMMARY: protein stability index of a GFP-peptide fusion (GPS, HEK-293T) (PSI 1-6); higher = more stable;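 also: lentivirally expressed fusions sorted by FACS into six bins by GFP to DsRed ratio, PSI derived from sequencing read proportions per bin multiplied by bin number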
# MEASUREMENT_SETUP: c terminus: native
Hey, just send me the number, nothing else.

Consider the worked cases shown below.
1) LTEAEGWHFFCFQGEATTKLAGK: 2.03
2) LTEAEGWHFFCFQGEATRQLAGK: 1.69
3) LTEAEGWHFFWFQGEATRKLAGK: 1.57
4) LTEAEGWHFFCFQGEMTRKLAGK: 2.1
5) LTEAEGWHFFCFQGEATRCLAGK: 2.41
6) LTEAEGWHFFCFQGEWTRKLAGK: 1.08

The recorded protein stability index for entry LTEAEGWHFFCFQGELTRKLAGK equals 3.02
